Assay: protein stability index of a GFP-peptide fusion (GPS, HEK-293T) (PSI 1-6); higher = more stable;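 also: 24-mer peptide tiles fused after GFP, lentivirally expressed, FACS-sorted into six equal bins by GFP/DsRed ratio, decoded by Illumina sequencing, PSI is the read-weighted mean bin number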
Conditions: treatment: MLN4924 1 uM, 8 h; c terminus: a fixed tail appended
I would appreciate it if you labelled entries t when protein stability index is 4 or higher, otherwise f.

HSFVLVTSLGLTYDGMLSDVQSMP [MAGEA10] ... f
PPPSRPSVAVPPPPPNRMYPPPPP [WASL] ... t
LGSYKAQKTSRSSSIPCSGSLDGR [PPEF2] ... t
LSPEPPVYSLQDFDTLATVGTGTF [PRKX] ... f
HFSRLCGPESPPPPYSRLSPRDEY [SMAD6] ... f
VDIKPANMEELTEVITAAEFHPHH [PPP2R2B] ... t
RLHLRRTTEQHVPEVEVQVKRRRT [SNURF] ... t

---

protein stability index values by entry
Test: protein stability index of a GFP-peptide fusion (GPS, HEK-293T) (PSI 1-6); higher = more stable
Conditions: treatment: DMSO; c terminus: a fixed tail appended
READOUT_KIND: protein stability index

SSSYEQFNGELPNGRHKIPESQFP [SRPK2] ... 4.1
PRAVFVLLEERRPADSAQLLSLNS [TFE3] ... 2.29
MDADEGQDMSQVSGKESPPVSDTP [IKZF1] ... 5.35
AKIRAKIPGTGALASAAAAVSGSK [RTN2] ... 4.3
KVQTVIILGKVILWILHLLLECYI [TMEM192] ... 2.5
KGYPDGVKSIVVKGYNIWTGGPDA [TLE6] ... 2.68
SDINSIRRILDELTLCKSDLESQV [KRT34] ... 3.34
LSFSDALLSIIATVMILPVTHTEI [TMEM175] ... 3.15
LFLFGYKFSGLYILSFTVIMVGFI [SLC35F2] ... 3.64
SATCTTGVMSAYAMCVRYDGVEVD [ADAMTSL2] ... 2.72
ALVRLRETEEMLGKKQEYLENRIQ [CHMP4C] ... 3.02
GNRILDEKEQEKMRQDLEEERVAL [PKD2L1] ... 5.24
ALLLGQGANINAQTEETQETALTL [ANKRD17] ... 4.17
QKVDQFDPFTVPTISFICRELDAI [PRIM1] ... 2.2
VRVLDMVAKLESECLKRQGQREPG [FBXO34] ... 4.06
FTTFRGTELSFLVTTHQPTNLVLP [EDNRA] ... 2.84
DETIGFEDILNDPSQSEVMGEPHL [POMP] ... 5.5
LDQPAFQQLVSFSESGSLGNSSGS [ISL2] ... 4.43
QVERMREVNSRCYQPEPFACGIEH [FBXO34] ... 2.53
LEKCKTLVSQSNDLSSLRAKYPHD [SPACA9] ... 4.29
SQKDLENDPSVNSQAQETTIIASN [TOR1AIP2] ... 5.37
APTSTCRTSVGVAVLGGFLYAVGG [KLHL20] ... 3.02
LASSLSPSQDERMRSPQNLHSQED [NOL4L] ... 5.37
GLEGLEDAPPVELQLLHECSPSQM [FANCE] ... 4.77
LYSLTLYGLRGPHKADSIQGTART [TNXB] ... 2.11
VSMETYHVTLTLPPTQLEVNLEEI [C2CD2L] ... 2.34
VCINLPPPLTRQIAVKTLGIGKNV [GFOD1] ... 2.23
CQEQIEALLESSLRQAQQNMDPKA [CCND1] ... 4.85
TILLSYGVILHSLKTQSLEGKRKA [OR4A15] ... 2.5
GDGKSKKKQAGRPKGSKGKEKDSP [RBBP5] ... 5.39
LILELVSGGELFDFLAEKESLTED [DAPK3] ... 1.94
AESKGTGREKPGPLDFEAYSAAAL [FCHO1] ... 4.8
RKLRKTVNGDGSRENGNNSSDKVR [PHTF1] ... 4.96
QQTKLEAEKLKVQALKDRGLSIPR [LSM1] ... 4.12
EAVSTLLGAVAVFAVGYIKISWST [SLC19A2] ... 2.82
EQILELLVLEQFLTILPTEIETWV [ZNF449] ... 3.15
EGLLNTYQELLGLSFEQMTDAHVW [NLN] ... 2.41
YDSFDSEDYPAALPNHKPKGTFKD [ETS1] ... 5.05
LATTEKKTEQQRRREKAVHRLRVQ [NOP53] ... 4.34
AVQKTDEGHPFKAYLELEITLSQE [RTN1] ... 2.24
LLLGTAYSFYLFHPLAYGMVGPLA [POMT2] ... 3.32
ATGLTSGLLSLLLPETLNSPLLET [SLC22A15] ... 2.2
PTGRLPALVRWWNGIGAVLDFTHP [MYORG] ... 2.15
PADPTGNLGGGDPKGWRQLAQEAE [OAS1] ... 5.17
LERLAYLHARLRELLCELGRPSMV [PRAME] ... 2.42
DDKTDKRIFTFICKDSESNKHLCY [GULP1] ... 2.47
SSSPASVTTEQLGAKMTERGSVAR [PXN] ... 4.86
SLNGPLSTSRHVMAPVMAHVDPEE [ADAMTS4] ... 4.5
CDKYPHESQLPEEWENNRESLIVF [CPXM2] ... 3.68

---

Test: protein stability index of a GFP-peptide fusion (GPS, HEK-293T) (PSI 1-6); higher = more stable
Conditions: treatment: DMSO; c terminus: a fixed tail appended
protein stability index values by entry
READOUT_KIND: protein stability index

EAGGKQKAVEEELDAEDRPAWNSK [SLC6A17] ... 5.62
IAGDEGTQIPADEDTQTDADSSAQ [TAF7L] ... 5.58
GAPLIRVHSSPVSSPSVSGPRRLV [SPACA3] ... 3.24
PKPCAGNQGTQITVEDLFYNIATR [MLH1] ... 2.85
QCRHTLEQHNWNIEAAVQDRLNEQ [FAF2] ... 3.89
TKILVVNAAYFVGKWMKKFPESET [SERPINB5] ... 2.56
MSGQTLTDRIAAAQYSVTGSAVAR [SNAP91] ... 4
GLVYRIHSVLQGFIPLFQKFRLTG [TMEM40] ... 3.03
EMSLPEVQKDKYPEEFSLLKLQTK [SPATS1] ... 4.29
KDSYSSRDYPSSRDTRDYAPPPRD [RBMX] ... 4.08
QEPMVPAKLGTQAEKDRRLKKKHQ [PPFIA4] ... 5.32
EGDTVSQELLDTVLVNLVPAHKNL [PDS5B] ... 3.65
KLVVHDCPVWDIFDSDWYTSRNLI [RHOBTB3] ... 2.62
GARPVSSAASVYAGAGGSGSRISV [KRT18] ... 3.66
SEQESLLQQAQAQFRMAQEEARRN [SMG5] ... 5.19
ETGEAARDPSLRPARTVLVGSLSW ... 3.06
TQPTHGQFALTNGDPLNCHSYLSG [NR2F2] ... 3.69
AALHIDLCKATSPADALQYLLQFA [INTS4] ... 2.36
GLSPRVIRVWFQNKRCKDKKKSIL [ISL2] ... 2.13
YQHLEEDMKSLKQVLEMKNQQIHE [MTUS2] ... 4.07
SQVPTGEVFYYSCEYNFVSPSKSF [CFHR2] ... 2.59
YLRPQSNYSSSQDALISVSYTIIT [OR10K2] ... 2.73

---

Assay: protein stability index of a GFP-peptide fusion (GPS, HEK-293T) (PSI 1-6); higher = more stable
Conditions: treatment: DMSO; c terminus: a fixed tail appended
I would appreciate it if you labelled entries 1 (yes) when protein stability index is 4 or higher, otherwise 0 (no).

RLHLAFKRQVPREQAQAYAERLGV [RAB40A] ... 0 (no)
LFLGRILSLTSSASRLLTTALTSF [FANCE] ... 0 (no)
KQQNVAHCMLVSNRVSWWGSTLAM [ZBED1] ... 0 (no)
EADENENITVVKGIRLSENVIDRM [CHCHD3] ... 1 (yes)
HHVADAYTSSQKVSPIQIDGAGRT [TOR1AIP2] ... 0 (no)
SPLLETFSDLQVYSYRRLGEEALS [SLC22A15] ... 0 (no)
ASVSDEELKRRVAEELALEQAKKE [CHCHD3] ... 1 (yes)
QPRLSYAEMAEDYPRYPDIHDLDL [CLCN6] ... 1 (yes)
QFLFIYQLPFCGPNVIDNFLCDLY [OR4A15] ... 0 (no)
VPKVGQRFNRIGLPPKVGSFQLFV [PI4K2A] ... 0 (no)
PIFVNSPTLDAPGGRALVVRKVPP [SMAD6] ... 0 (no)
LLASLTGGVLIDRYGRRTAIILSS [SLC2A12] ... 0 (no)
KGTPASKLILGMPTYGRSFTLASS [CHIT1] ... 0 (no)
NVHATTATGDTALTYACENGHTDV [ANKRD17] ... 1 (yes)
VLNPHPSLGYKEIRKGESRSEALA [CHGA] ... 1 (yes)
QLENEQSQENSINPIQKEEDEGVD [SPANXN3] ... 1 (yes)
WGGQEDREPAGRWKEGRPRVEESG [PBXIP1] ... 1 (yes)

This collection of values is drawn from the supplement of paper PMC10567573.
